biological target: extracellular domain (ECD, D1–D7) of VEGFR1 (Homo sapiens); construct: VEGFR-1 D1-D7 (ECD domain)/Fc Chimera; purchased Bio-techne R&D, Abingdon, UK; assay: Chemiluminescent competition (displacement) assay: biotinylated VEGF165 (VEGF-A) vs peptide on coated VEGFR1; type: binding; settings: biotinylated VEGF-A displaced by 30 μM peptide on VEGFR1 ECD (D1–D7); chemiluminescence; three experiments in triplicate
Reported % of Displacement, 30 μM values follow for various substances

SUBSTANCE: Ac-SSEEFARNWAAIN-NH2 [Compound 29]
% of Displacement, 30 μM: 60 ± 3%

% of Displacement, 30 μM in this record for Ac-SSEEWARNFAAFN-NH2 [Compound 10] : 64 ± 3%

substance Ac-SSEEYARNWAAWN-NH2 [Compound 8] , % of Displacement, 30 μM observed: 63 ± 1%

Just so you know, measured % of Displacement, 30 μM for Ac-SSEEFARNWAAFN-NH2 [Compound 12] came out at 66 ± 1%

Entry Ac-SSEEWARNYAAFN-NH2 [Compound 16] ; % of Displacement, 30 μM = 71 ± 2%

Field % of Displacement, 30 μM (entry Ac-SSEEFARNIAAYN-NH2 [Compound 32] ) reads 59 ± 4%

Value of measured % of Displacement, 30 μM for the entry Ac-SSEEYARNWAAFN-NH2 [Compound 14] : 62 ± 4%

* * *

target: extracellular domain (ECD, D1–D7) of VEGFR1 (Homo sapiens, UniProt P17948); construct: VEGFR-1 D1-D7 (ECD domain)/Fc Chimera; purchased Bio-techne R&D, Abingdon, UK; assay: Chemiluminescent competition (displacement) assay: biotinylated VEGF165 (VEGF-A) vs peptide on coated VEGFR1; type: binding; settings: biotinylated VEGF-A displaced by 30 μM peptide in the presence of EDTA on VEGFR1 ECD (D1–D7); to avoid false positives from metals or aggregation
Sequence (P17948 27-758 limits assumed): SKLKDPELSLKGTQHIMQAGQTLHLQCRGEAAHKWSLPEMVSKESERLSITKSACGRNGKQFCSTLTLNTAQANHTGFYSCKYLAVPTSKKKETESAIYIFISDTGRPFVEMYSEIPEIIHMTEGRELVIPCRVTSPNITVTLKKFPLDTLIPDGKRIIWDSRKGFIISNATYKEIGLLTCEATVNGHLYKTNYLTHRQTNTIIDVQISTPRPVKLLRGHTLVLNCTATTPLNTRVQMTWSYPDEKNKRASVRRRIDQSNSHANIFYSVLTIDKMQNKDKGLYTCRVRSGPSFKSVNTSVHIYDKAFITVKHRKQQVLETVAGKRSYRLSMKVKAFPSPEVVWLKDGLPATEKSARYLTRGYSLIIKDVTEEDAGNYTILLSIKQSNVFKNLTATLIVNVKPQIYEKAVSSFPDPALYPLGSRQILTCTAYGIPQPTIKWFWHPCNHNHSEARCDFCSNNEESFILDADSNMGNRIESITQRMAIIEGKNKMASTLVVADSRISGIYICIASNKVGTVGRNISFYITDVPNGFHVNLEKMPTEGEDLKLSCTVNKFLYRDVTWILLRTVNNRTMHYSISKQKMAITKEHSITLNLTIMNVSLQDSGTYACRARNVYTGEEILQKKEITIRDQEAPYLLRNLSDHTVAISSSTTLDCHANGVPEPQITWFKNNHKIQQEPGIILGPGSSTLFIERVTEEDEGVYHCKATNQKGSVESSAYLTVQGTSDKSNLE
METRIC NAME: % of Displacement, 30 μM + EDTA (%)
Record the value in %, omitting the unit from your answer.

Consider the reported % of Displacement, 30 μM + EDTA for these substances:
SUBSTANCE: Ac-SSEEFARNIAAYN-NH2 [Compound 32]
% of Displacement, 30 μM + EDTA, %: 55
//
SUBSTANCE: Ac-SSEEFARNWAAIN-NH2 [Compound 29]
% of Displacement, 30 μM + EDTA, %: 71

Recorded result, Ac-SSEEWARNYAAFN-NH2 [Compound 16] , % of Displacement, 30 μM + EDTA: 44

Looking up Ac-SSEEWARNFAAFN-NH2 [Compound 10] , I see its % of Displacement, 30 μM + EDTA listed as 55

Measured % of Displacement, 30 μM + EDTA of Ac-SSEEYARNWAAFN-NH2 [Compound 14] : 56

For Ac-SSEEYARNWAAWN-NH2 [Compound 8] the substance record lists % of Displacement, 30 μM + EDTA as 40

% of Displacement, 30 μM + EDTA recorded for this substance, Ac-SSEEFARNWAAFN-NH2 [Compound 12] , is 53

* * *

Reported values of % of Displacement, 100 μM for individual entries
biological target: extracellular domain (ECD, D1–D7) of VEGFR1 (Homo sapiens, UniProt P17948); construct: VEGFR-1 D1-D7 (ECD domain)/Fc Chimera; purchased Bio-techne R&D, Abingdon, UK; assay: Chemiluminescent competition (displacement) assay: biotinylated VEGF165 (VEGF-A) vs peptide on coated VEGFR1; format: binding; conditions: biotinylated VEGF-A (131 pM btVEGF165) displaced by 100 μM peptide on VEGFR1 ECD (D1–D7); PBS 1% DMSO, 3 h 37 °C; chemiluminescence; three experiments in triplicate
Numbers only here, please. The scale is %.

SUBSTANCE: Ac-SSEEWARNFAAFN-NH2 [Compound 10]
TESTED TARGET: extracellular domain (ECD, D1–D7) of VEGFR1 (Homo sapiens, UniProt P17948)
ENDPOINT UNIT: %
ENDPOINT VALUE: 55
--
SUBSTANCE: Ac-SSEEFARNWAAFN-NH2 [Compound 12]
TESTED TARGET: extracellular domain (ECD, D1–D7) of VEGFR1 (Homo sapiens, UniProt P17948)
ENDPOINT UNIT: %
ENDPOINT VALUE: 55
--
SUBSTANCE: Ac-SSEEFARNWAAIN-NH2 [Compound 29]
TESTED TARGET: extracellular domain (ECD, D1–D7) of VEGFR1 (Homo sapiens, UniProt P17948)
ENDPOINT UNIT: %
ENDPOINT VALUE: 72
--
SUBSTANCE: Ac-SSEEYARNWAAWN-NH2 [Compound 8]
TESTED TARGET: extracellular domain (ECD, D1–D7) of VEGFR1 (Homo sapiens, UniProt P17948)
ENDPOINT UNIT: %
ENDPOINT VALUE: 63
--
SUBSTANCE: Ac-SSEEWARNYAAFN-NH2 [Compound 16]
TESTED TARGET: extracellular domain (ECD, D1–D7) of VEGFR1 (Homo sapiens, UniProt P17948)
ENDPOINT UNIT: %
ENDPOINT VALUE: 62

The reported % of Displacement, 100 μM of the substance Ac-SSEEYARNWAAFN-NH2 [Compound 14] was 58

Summary for this substance, Ac-SSEEFARNIAAYN-NH2 [Compound 32] : % of Displacement, 100 μM is 60
